assay: In vivo pharmacokinetic property evaluation in CD-1 mice (IV and PO); conditions: mouse, plasma, 1 mg/kg, IV, 1 mpk
OBSERVED_PROPERTY: AUC(0-t)
// unit must come after the numeric part

Problem: What AUC(0-t) value was documented for this molecule, CC1(C)CCC(CN2CCN(c3ccc(C(=O)NS(=O)(=O)c4cc([N+](=O)[O-])c(NCC5CCOCC5)c5[nH]cnc45)c(Oc4cnc5[nH]ccc5c4)c3)CC2)=C(c2ccc(Cl)cc2)C1 [Compound 2] ?
Result: 1.8 µM·h

====

assay: Liver microsome metabolic stability in vitro, SD rat; type: in vitro ADME; settings: SD rat liver microsomes
OBSERVED_PROPERTY: half-life at 1 µM

Problem: What half-life at 1 µM value was documented for this compound, CC1(C)CCC(CN2CCN(c3ccc(C(=O)NS(=O)(=O)c4cc([N+](=O)[O-])c(NCC5CCOCC5)c5[nH]cnc45)c(Oc4cnc5[nH]ccc5c4)c3)CC2)=C(c2ccc(Cl)cc2)C1 [Compound 2] ?
Result: 1.76 h
